Every entry's value here was drawn from PubChem BioAssay (NCI).

test system: SF-295 CNS; assay: NCI-60 one-dose screen, 48 h (100 = growth as untreated, 0 = no growth, -100 = all killed); conditions: 10 µM unless noted
Compounds without any hit were thinned out: in the full panel of roughly 83,000, 20% have a hit.
Criterion: growth strictly under 70%. Met: MET. Not met: NOT MET.

molecule=O=C(Nc1cccc(Cl)c1)Nc1nc2cc([N+](=O)[O-])ccc2o1 labelvalue=MET
molecule=CCOC(=O)c1cccc(NC2=C(Cl)C(=O)c3nc(C)ccc3C2=O)c1 labelvalue="NOT MET"
molecule=O=C(COc1ccc(/C=C2\C(=O)Nc3cc(Cl)ccc32)cc1)Nc1ccc(Cl)cc1 labelvalue=MET
molecule=Cc1ccc(Nc2nc(SC(C)C)nc(-c3ccccc3)c2C#N)cc1 labelvalue="NOT MET"
molecule="CCOC(=O)C1=C(C)NC(C)=C(C(=O)OC(C)C)C1c1cccc(C#N)c1 (stereo not given)" labelvalue="NOT MET"

---

test system: SN12C renal; experiment: NCI-60 one-dose screen, 48 h (100 = growth as untreated, 0 = no growth, -100 = all killed); conditions: 10 µM unless noted
This is part of a sample that, as a whole, favours compounds with a hit. Of some 83,000 tested, about 20% had one in any assay.
Reported values of growth for individual entries
attributeMeasured: growth (%)

recordsmiles=CCN(CC)c1ccc(/C=N/NC(=O)c2ccc(S(N)(=O)=O)cc2)c(O)c1 systemname="SN12C renal" unitsymbol=% experimentalvalue=28.3
recordsmiles=COc1ccc(/C=N/NC(=O)c2c(N)nn(C)c2Nc2ccccc2)cc1 systemname="SN12C renal" unitsymbol=% experimentalvalue=57.6
recordsmiles=Cn1cc(-c2nnc(N)nc2-c2c[nH]c3ccc(Br)cc23)c2cc(Br)ccc21 systemname="SN12C renal" unitsymbol=% experimentalvalue=110
recordsmiles=C/C(=N\NC(=O)/C=C/CC(=O)O)c1nnn(-c2ccc([N+](=O)[O-])cc2)c1C systemname="SN12C renal" unitsymbol=% experimentalvalue=101
recordsmiles=O=C(CCCCCCN1CC(=O)N2[C@@H](c3ccccc3Br)c3[nH]c4ccccc4c3C[C@H]2C1=O)NO systemname="SN12C renal" unitsymbol=% experimentalvalue=66.3
recordsmiles=COC(=O)CCCNCCCn1ccc2cc(NCc3cccc(-c4ccccc4)c3C)ccc21 systemname="SN12C renal" unitsymbol=% experimentalvalue=73.4
recordsmiles=CCN(CC)S(=O)(=O)c1ccc(-c2nc(C(Cl)Cl)nc3cc(-c4ccc(F)cc4)nn23)cc1 systemname="SN12C renal" unitsymbol=% experimentalvalue=67.6
recordsmiles=CCCCCCOC(=O)c1cc(-c2ccc(F)cc2)nc2ccccc12 systemname="SN12C renal" unitsymbol=% experimentalvalue=95
recordsmiles=O=C(CSc1nnc(-c2cccs2)n1-c1ccccc1)Nc1ccccc1F systemname="SN12C renal" unitsymbol=% experimentalvalue=99.1
recordsmiles=Brc1ccc2[nH]cc(-c3nn4cc(-c5nccs5)nc4s3)c2c1 systemname="SN12C renal" unitsymbol=% experimentalvalue=71.1

---

test system: HCC-2998 colon; experiment: NCI-60 one-dose screen, 48 h; details: 10 µM unless noted
This is part of a sample that, as a whole, favours compounds with a hit. Of some 83,000 tested, about 20% had one in any assay. Activity calls are given as the source filed them. The calls were made as follows: active = growth percent below 10; inactive = the rest.
Classes used: t for active, f for inactive

compound=O=C(N/N=C\c1ccc([N+](=O)[O-])cc1)c1ccc2nc(-c3ccc(Br)cc3)[nH]c2c1 labelvalue=t
compound=Clc1cccc(/C=N/Nc2nc(N/N=C/c3cccc(Cl)c3)nc(N3CCOCC3)n2)c1 labelvalue=f
compound=O=C1[C@H]2Cc3c([nH]c4ccccc34)[C@H](c3ccc(Br)cc3)N2C(=O)CN1C1CCN(CC2CCCCC2)CC1 labelvalue=f
compound=C1=CC(c2nn3c(-c4ccccc4)nnc3s2)=Cc2ccccc2O1 labelvalue=f
compound=C#C[C@]1(O)CC[C@H]2[C@@H]3CC=C4c5sc(N6CCN(C)CC6)nc5CC[C@]4(C)[C@H]3CC[C@@]21C labelvalue=f
compound=O=C(CSc1nc2ccccc2c(=O)n1-c1ccc(S(=O)(=O)Nc2ccc(Cl)nn2)cc1)Nc1ccc(S(=O)(=O)Nc2ccc(Cl)nn2)cc1 labelvalue=f
compound=CCOC(=O)c1ccc(NC2=C(Cl)C(=O)c3nc(C)ccc3C2=O)cc1 labelvalue=f
compound=NS(=O)(=O)c1cccc(Nc2nc(SCC(=O)c3ccc(Cl)cc3)nc3c2CCC3)c1 labelvalue=f
compound=COC(=O)c1ccc(NC2=C(Cl)C(=O)c3nc(C)ccc3C2=O)cc1 labelvalue=f
compound=COC(=O)CCSC1=C(C)C(=O)c2ccccc2C1=O labelvalue=f
compound=COc1ccc(/C=N/NC(=O)CSc2nc(-c3cnccn3)cc(-c3cccs3)c2C#N)cc1 labelvalue=f
compound=N#Cc1c(-c2cccs2)cc(-c2cnccn2)nc1SCC(=O)N/N=C/c1ccncc1 labelvalue=f
compound=CC(=C(c1ccc(OCCN2CCCC2)cc1)c1ccc(OCCN2CCCC2)cc1)c1ccc(Cl)cc1 labelvalue=t
compound=C#CCOc1cccc(-c2nc(N)nc(Nc3ccccc3SSc3ccccc3Nc3nc(N)nc(-c4cccc(OCC#C)c4)n3)n2)c1 labelvalue=f
compound=N#C/C(=C\c1ccc(-c2ccc(Cl)c(Cl)c2)o1)C(=O)Nc1ncc(Cc2ccc(Cl)cc2)s1 labelvalue=f
compound="COc1ccc(/C=N\\NC(=O)c2cnn(CC(O)c3ccccc3)c2N)cc1OCc1ccc(Cl)cc1 (stereo not drawn)" labelvalue=f
compound=CCCCOc1ccc(S(=O)(=O)N2CCN(c3nc(C)cc(N4CCOCC4)n3)CC2)cc1 labelvalue=f
compound=COc1ccc2c(c1)c(-c1nn3cc(-c4ccncc4)nc3s1)cn2C labelvalue=f
compound=O=C(CCCCCCNC(=O)C(O)(O)C(F)(F)F)Nc1nc2ccccc2s1 labelvalue=t
compound="CCC1=Cc2c(OC)cccc2OC12C=Cc1c(OC)cccc1O2 (stereo not drawn)" labelvalue=t
compound=CN1CCN(Cc2ccc(/C=N/Nc3ccnc4cc(Cl)ccc34)cc2)CC1 labelvalue=f
compound="O=C1c2ccccc2C23C(=C(c4cncnc4)c4ccccc42)CCCN13 (stereo not drawn)" labelvalue=f
compound=CCOC(=O)c1cnc2c(-c3ccc(Cl)c(Cl)c3)cnn2c1 labelvalue=f
compound=CNC(=O)c1cc(Oc2ccc3c(c2)sc2nc(-c4ccc(N(C)C)cc4)cn23)ccn1 labelvalue=t
compound="CC(Nc1ncnc2ccc(-c3cnc(N)nc3)cc12)c1ccccc1 (stereo not drawn)" labelvalue=f
compound=CCCCCCN1C=C/C(=C\C(=O)n2ccc3ccccc32)c2ccccc21 labelvalue=f
compound=Clc1ccc2[nH]cc(-c3cncn3CCc3ccc4c(c3)OCO4)c2c1 labelvalue=f
compound=COc1cc(/C=N\NC(=O)c2ccc3nc(-c4ccc(Br)cc4)[nH]c3c2)cc(OC)c1OC labelvalue=f
compound=CC1(C)CC[C@]2(C(=O)O)CC[C@]3(C)C(=CC[C@@H]4[C@@]5(C)CC[C@H](NOCCCN)C(C)(C)[C@@H]5CC[C@]43C)[C@@H]2C1 labelvalue=f
compound=CCOC(=O)c1ccccc1NC1=C(Cl)C(=O)c2nc(C)ccc2C1=O labelvalue=f
compound=C#CCOc1ccccc1/C=N/Nc1nc(-c2ccc(Cl)cc2)cs1 labelvalue=f
compound=CCN(CC)c1ccc(/C=N/NC(=O)c2ccc(NS(C)(=O)=O)cc2)cc1 labelvalue=f
compound=O=C(O)CC1CCN(c2ccc3nnc(Cl)n3n2)CC1 labelvalue=f
compound=CC(C)=CCC[C@](C)(O)[C@H]1CC[C@]2(C)[C@@H]1CC[C@@H]1[C@@]3(C)CC[C@H](N)C(C)(C)[C@@H]3CC[C@]12C labelvalue=f
compound=O=C1[C@H]2Cc3c([nH]c4ccccc34)[C@H](c3ccc(Cl)cc3)N2C(=O)CN1C1CCN(CC2CCCCC2)CC1 labelvalue=f
compound=CN1CCN(c2ccc(Nc3nc(NCCCNS(=O)(=O)c4ccc(C(F)(F)F)cc4)c4sccc4n3)cc2)CC1 labelvalue=t
compound=C#Cc1cc(OC)c(C(=O)Nc2ccc(F)cc2C(=O)Nc2cccc(S(=O)(=O)C(F)(F)F)c2)cn1 labelvalue=f
compound=c1ccc(-c2cn3c(-c4c[nH]c5ccccc45)csc3n2)cc1 labelvalue=f
